tested.system: HLA-B*57:01
run.description: IEDB peptide-MHC binding, purified MHC/direct/fluorescence; filed as Kd, often an IC50 or EC50 that approximates it; bounds were set here for any values at or beyond the usual limits of such assays
measurement.context: source organism: Salmonella enterica
reported.metric: Kd

MGKTITDVK | ≥ 20 µM

###

tested.system: HLA-B*46:01
run.description: IEDB peptide-MHC binding, purified MHC/direct/fluorescence; filed as Kd, often an IC50 or EC50 that approximates it; bounds were set here for any values at or beyond the usual limits of such assays
measurement.context: source organism: Mammarenavirus juninense
reported.metric: Kd

QLAKRSEIL | ≥ 20 µM
